- System: Ras-related protein Rab-7a (dog), GTP binding
- protocol: blockers of fluorescent GTP binding to Rab7 – biochemical, wildtype, multiplex bead flow cytometry, dose response (AID 1336)
- conditions: bead-based flow cytometry; series mostly up to 100 µM
Results with a measured potency or affinity are listed apart. The source made the active and inactive calls. The rule behind the calls is not given here.
parameter_measured: GTP binding, % of control

Some solved entries appear below for comparison.
- compound: "COc1ccc(CNc2ccccc2C(=O)O)cc1"
  assay_value: "inactive"
- compound: "O=[N+]([O-])c1ccc(/C=C/C2=NN(c3ccccc3)C(c3ccco3)C2)cc1 (stereo unspecified)"
  assay_value: "inactive"
- compound: "CCN(CC)c1ccc(/C=N/OCC(=O)Nc2cccc(C)c2)cc1"
  assay_value: "inactive"
- compound: "CCOc1ccc(-n2nc3c(=O)[nH]nc(C)c3c2C)cc1"
  assay_value: "inactive"
- compound: "O=C(O)C1CSC(CCc2ccccc2)N1 (stereo unspecified)"
  assay_value: "inactive"
- compound: "Cc1ccccc1NC(=O)CN1C(=O)S/C(=C\\c2ccc(-c3cc(C(=O)O)ccc3C)o2)C1=O"
  assay_value: "inactive"
- compound: "CC(=O)Oc1cccc(C#CC(=O)c2ccc([N+](=O)[O-])cc2)c1"
  assay_value: "inactive"
- compound: "O=C1C2CC=CCC2C(=O)N1c1ncn[nH]1 (stereo unspecified)"
  assay_value: "inactive"

Exercise: Which GTP binding, % of control is reported for this compound? Cc1ccc(OCCn2c(SCC(=O)O)nc3ccccc32)cc1
Key: inactive

Exercise: Which GTP binding, % of control is reported for this compound? COc1cccc(/C=N/Nc2nn3cnnc3c3ccccc23)c1O
Key: inactive

Exercise: Which GTP binding, % of control is reported for this compound? O=C(N/N=C/c1ccco1)c1ccc(C(=O)N/N=C/c2ccco2)o1
Key: inactive

----------
- target_under_test: Beta-adrenergic receptor kinase 1 (Homo sapiens) (UniProt P25098)
- Sequence (P25098 whole entry, looked up): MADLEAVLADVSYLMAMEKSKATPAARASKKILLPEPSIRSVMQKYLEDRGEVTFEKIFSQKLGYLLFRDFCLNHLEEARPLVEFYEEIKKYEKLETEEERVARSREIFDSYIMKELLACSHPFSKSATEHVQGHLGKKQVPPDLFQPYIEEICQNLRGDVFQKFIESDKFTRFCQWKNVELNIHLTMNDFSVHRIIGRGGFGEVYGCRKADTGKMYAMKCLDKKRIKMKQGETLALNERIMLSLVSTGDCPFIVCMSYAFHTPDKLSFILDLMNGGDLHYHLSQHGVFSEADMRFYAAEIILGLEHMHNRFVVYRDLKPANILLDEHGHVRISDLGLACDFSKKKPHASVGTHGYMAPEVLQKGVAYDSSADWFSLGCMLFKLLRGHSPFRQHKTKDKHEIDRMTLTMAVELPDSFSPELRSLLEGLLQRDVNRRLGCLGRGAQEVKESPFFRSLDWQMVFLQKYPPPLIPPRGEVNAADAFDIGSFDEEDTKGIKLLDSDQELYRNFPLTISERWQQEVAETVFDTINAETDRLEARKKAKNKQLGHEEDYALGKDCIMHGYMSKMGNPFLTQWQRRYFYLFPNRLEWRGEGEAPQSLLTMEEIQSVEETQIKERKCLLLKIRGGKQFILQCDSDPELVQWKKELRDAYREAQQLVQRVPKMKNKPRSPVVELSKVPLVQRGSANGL
- protocol: GRK2 binders displacing RNA aptamer, biochemical, validation, human GRK2, bead flow cytometry (AID 488806)
- conditions: bead-bound GRK2, FAM-aptamer displacement, at 10 µM, active compounds read high
Calls of active or inactive are those of the source.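 The calls were made as follows: active = aptamer binding inhibition above 30%, about 3 SD of noise from non-fluorescent compounds; inactive = inhibition at or below 30%.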
parameter_measured: aptamer binding inhibition

Some solved entries appear below for comparison.
- molecule: "CCSC(SCC)[C@H](O)[C@@H](O)[C@H](O)[C@H](O)CO"
  assay_value: "7% (inactive)"
- molecule: "CC(C[N+](C)(C)C)OC(N)=O (stereo unspecified)"
  assay_value: "2% (inactive)"
- molecule: "Nc1ccn([C@@H]2O[C@H](CO)[C@@H](O)[C@@H]2O)c(=O)n1"
  assay_value: "0% (inactive)"
- molecule: "CCOc1ccc(C(NC(C)=O)c2ccc(OC)c(OC)c2)cc1 (stereo unspecified)"
  assay_value: "5% (inactive)"
- molecule: "COC(=O)c1ccc(NC(=O)C23CCC(C)(C(=O)O2)C3(C)C)cc1 (stereo unspecified)"
  assay_value: "2% (inactive)"

Now examine the next entry.
Exercise: Which aptamer binding inhibition is reported for this molecule? S=C(NCc1ccccc1)NCc1cccc(CNC(=S)NCc2ccccc2)c1
Key: -2% (inactive)

----------
- protocol: cytosolic pH regulators acting via V-ATPase – S. cerevisiae, pHLuorin, HTS validation (AID 504600);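 note: plate controls were DMSO for no effect and reference compound for full effect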
- conditions: V-ATPase proton transport, at 10 µM, active compounds read high
parameter_measured: response (%)
Numeric answer only, unit % assumed.

Some solved entries appear below for comparison.
- compound: "COc1ccc(N2C(=O)C3C(C2=O)C(C(=O)c2ccccc2)N2CCCC32)cc1 (stereo not drawn)"
  parameter_measured: "response"
  assay_value: -0.56
- compound: "Cn1c(=S)n(C)c2ccccc21"
  parameter_measured: "response"
  assay_value: -1.79

Exercise: Which response is reported for this compound? CCc1nc(N)nc(N)c1-c1ccc(Cl)cc1
Key: 1.08

Exercise: Which response is reported for this compound? O=C(N/C(=C/C=C\c1ccccc1)C(=O)N1CCOCC1)c1ccc(Br)cc1
Key: 2.4

Exercise: Which response is reported for this compound? O=C(O)c1cc2cc(Cl)cc(Cl)c2oc1=O
Key: 10.3

Exercise: Which response is reported for this compound? CN1CC2CCCC3(C1)C(=O)NC1(CCCCC1)N=C23 (stereo not drawn)
Key: 3.54

Exercise: Which response is reported for this compound? CCCCCCCCNC(C)C(O)c1ccc(SC(C)C)cc1 (stereo not drawn)
Key: -2.14

Exercise: Which response is reported for this compound? Cc1cccc(NC(=O)c2cc3ccccc3o2)c1
Key: -0.5

Exercise: Which response is reported for this compound? C#CCOc1ccc2c(C)cc(=O)oc2c1
Key: -0.49

Exercise: Which response is reported for this compound? O=C(c1ccco1)N1CCCN(Cc2nc(-c3ccc4c(c3)OCO4)no2)CC1
Key: -0.63
